# assayed-target: AII receptor
# assay-remarks: Ligand-receptor binding assay, displacement of [125I]AII from rat adrenal cortex particulate fraction
# recorded-conditions: 0.05 nM [125I]AII, 1 h incubation, read-out: Angiotensin II Receptor Binding IC50
Exercise: state measured pIC50 for each of the compounds provided.
One number for each entry, as −log10 of the molar value.

> print(dat)
                                   compound  endpoint.value
1  CCCc1nc(CC)c(C(=O)OCc2oc(=O)oc2C(C)(C)C)n1Cc1ccc(-c2ccccc2-c2nn[nH]n2)cc1 [Example 14]            8.52
2  CCCc1nc(CC)c(C(=O)OCN(C)C)n1Cc1ccc(-c2ccccc2-c2nnn[nH]2)cc1 [Example 2]            7.00

Which measured pIC50 belongs to CCCc1nc(CC)c(C(=O)OC(C)OC(=O)OC(C)(C)C)n1Cc1ccc(-c2ccccc2-c2nn[nH]n2)cc1 (stereo not drawn) [Example 12] , tested on AII receptor?
8.30
